Would you kindly list koff for each of these binders?
molecular target: T1, human transferrin receptor (recombinant, SPR) (human, UniProt P02786 89-760); assay: SPR 25C
T1 construct: also called huTfR; human transferrin receptor-biotinylated
T1 sequence (P02786 89-760 limits assumed): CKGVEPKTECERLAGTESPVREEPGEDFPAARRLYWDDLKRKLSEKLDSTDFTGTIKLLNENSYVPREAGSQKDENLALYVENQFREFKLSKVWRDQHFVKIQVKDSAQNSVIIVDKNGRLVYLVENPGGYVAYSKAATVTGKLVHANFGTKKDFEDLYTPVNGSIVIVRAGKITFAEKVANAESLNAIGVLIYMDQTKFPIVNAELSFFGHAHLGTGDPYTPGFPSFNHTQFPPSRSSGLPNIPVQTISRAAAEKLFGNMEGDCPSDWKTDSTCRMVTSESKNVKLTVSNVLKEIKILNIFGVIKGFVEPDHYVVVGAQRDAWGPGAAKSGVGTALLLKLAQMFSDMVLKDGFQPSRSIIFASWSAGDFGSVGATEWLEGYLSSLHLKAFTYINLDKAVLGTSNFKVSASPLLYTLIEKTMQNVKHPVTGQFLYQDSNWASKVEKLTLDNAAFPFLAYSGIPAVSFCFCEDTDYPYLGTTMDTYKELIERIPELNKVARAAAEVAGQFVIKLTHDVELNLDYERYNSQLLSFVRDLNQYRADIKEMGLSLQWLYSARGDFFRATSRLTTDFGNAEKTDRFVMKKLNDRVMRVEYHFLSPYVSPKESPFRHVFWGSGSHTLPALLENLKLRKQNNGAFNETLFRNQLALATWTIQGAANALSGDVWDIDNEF
Give bare numbers, in s⁻¹.

binder	unit.of.measure	koff
2/99 VH23-DANG/VL12 (antibody, V domains shown) VH: QSMQESGPGLVKPSQTLSLTCTVSGFSLSSYAMSWIRQHPGKGLEWIGYIWSGGSTDYASWAKSRVTISKTSTTVSLKLSSVTAADTAVYYCARRYGTSYPDYGDANGFDPWGQGTLVTVSS VL: DIQMTQSPSSLSASVGDRVTITCRASQSISSYLAWYQQKPGKAPKLLIYRASTLASGVPSRFSGSRSGTDFTLTISSLQPEDFATYYCQQHYSSSNVDNTFGGGTKVEIK	s⁻¹	0.00187

Now let's try a different one.
Asked: Quick one: give measured koff for 2/99 VH8/VL9-NYA (antibody, V domains shown) VH: QQLVETGGGLIQPGGSLRLSCAASGFSLSSYAMSWVRQAPGKGLEWIGYIWSGGSTDYASWAKGRFTISKTSTTLYLQMNSLRAEDTAVYYCARRYGTSYPDYGDANGFDPWGQGTLVTVSS VL: AIQLTQSPSSLSASVGDRVTITCRASQSISSYLAWYQQKPGKAPKLLIYRASTLASGVPSRFSGSGSGTDFTLTISSLQPEDFATYYCQQNYASSNVDNTFGGGTKVEI
Given back: 0.00101

Where do the numbers come from? From patent US20230212312A1.
